test: Metal chelating activity assessed as compound-Fe3+ complex formation by UV-vis spectrophotometric analysis
Calls of active or inactive are those of the source. The calls are words filed in the database; no cut-off is given here.
Labels: active, inactive

- compound: "C[C@H](CCC(=O)N/N=C/c1ccc2ccccc2n1)[C@H]1CC[C@H]2[C@@H]3[C@H](O)C[C@@H]4C[C@H](O)CC[C@]4(C)[C@H]3C[C@H](O)[C@]12C"
  cat: "active"
- compound: "COc1cccc(/C=N/NC(=O)CC[C@@H](C)[C@H]2CC[C@H]3[C@@H]4[C@H](O)C[C@@H]5C[C@H](O)CC[C@]5(C)[C@H]4C[C@H](O)[C@]23C)c1O"
  cat: "inactive"
- compound: "COc1ccc(Nc2c(N/N=C/c3c(CO)cnc(C)c3O)c(=O)c2=O)cc1"
  cat: "active"
- compound: "Cc1ncc(CO)c(/C=N/NC(=O)c2ccc(NC(=O)CC[C@@H](C)[C@H]3CC[C@H]4[C@@H]5[C@H](O)C[C@@H]6C[C@H](O)CC[C@]6(C)[C@H]5C[C@H](O)[C@]34C)cc2)c1O (stereo in doubt)"
  cat: "active"
- compound: "Cc1ncc(CO)c(/C=N/NC(=O)CC[C@@H](C)[C@H]2CC[C@H]3[C@@H]4[C@H](O)C[C@@H]5C[C@H](O)CC[C@]5(C)[C@H]4C[C@H](O)[C@]23C)c1O"
  cat: "active"

----------
experiment: Metal chelating activity assessed as compound-Zn2+ complex formation by UV-vis spectrophotometric analysis
Calls of active or inactive are those of the source. No cut-off for these calls is given here.
Outcomes: YES (active), NO (inactive)

- compound: "COc1ccc(Nc2c(N/N=C/c3c(CO)cnc(C)c3O)c(=O)c2=O)cc1"
  cat: "NO"
- compound: "COc1ccc(Nc2c(NN=C(c3ccccn3)c3ccccn3)c(=O)c2=O)cc1"
  cat: "NO"
- compound: "COc1ccc(Nc2c(N/N=C/c3cccc(OC)c3O)c(=O)c2=O)cc1"
  cat: "NO"
- compound: "CCN1/C(=C/c2c(N/N=C/c3cc(C(C)(C)C)ccc3O)c(=O)c2=O)Sc2ccccc21"
  cat: "NO"
- compound: "COc1cccc(/C=N/NC(=O)CC[C@@H](C)[C@H]2CC[C@H]3[C@@H]4[C@H](O)C[C@@H]5C[C@H](O)CC[C@]5(C)[C@H]4C[C@H](O)[C@]23C)c1O"
  cat: "NO"
- compound: "C(=N\\Nc1nncc2ccccc12)/c1ccc2ccccc2n1"
  cat: "NO"
- compound: "C[C@H](CCC(=O)Nc1ccc(C(=O)N/N=C/c2ccc3ccccc3n2)cc1)[C@H]1CC[C@H]2[C@@H]3[C@H](O)C[C@@H]4C[C@H](O)CC[C@]4(C)[C@H]3C[C@H](O)[C@]12C (stereo in doubt)"
  cat: "YES"

----------
Measured Papp at 5 h, 10 µM accompanies every entry in the list below.
assay: Effective permeability of the compound at 10^-5 mol/L after 5 hrs by UV-based PAMPA; format: ADME; conditions: read-out: Peff

- molecule: "Cc1ncc(CO)c(/C=N/Nc2nncc3ccccc23)c1O"
  Papp at 5 h, 10 µM (×10⁻⁶ cm/s): 7.8
- molecule: "Cc1ncc(CO)c(/C=N/NC(=O)CC[C@@H](C)[C@H]2CC[C@H]3[C@@H]4[C@H](O)C[C@@H]5C[C@H](O)CC[C@]5(C)[C@H]4C[C@H](O)[C@]23C)c1O"
  Papp at 5 h, 10 µM (×10⁻⁶ cm/s): 7.5
- molecule: "CCN1/C(=C/c2c(N/N=C/c3c(CO)cnc(C)c3O)c(=O)c2=O)Sc2ccccc21"
  Papp at 5 h, 10 µM (×10⁻⁶ cm/s): 2.8
- molecule: "COc1ccc(Nc2c(N/N=C/c3c(CO)cnc(C)c3O)c(=O)c2=O)cc1"
  Papp at 5 h, 10 µM (×10⁻⁶ cm/s): 1.6
- molecule: "Cc1ncc(CO)c(/C=N/NC(=O)c2ccc(NC(=O)CC[C@@H](C)[C@H]3CC[C@H]4[C@@H]5[C@H](O)C[C@@H]6C[C@H](O)CC[C@]6(C)[C@H]5C[C@H](O)[C@]34C)cc2)c1O (stereo in doubt)"
  Papp at 5 h, 10 µM (×10⁻⁶ cm/s): 2.2

----------
tested on: SH-SY5Y; assay: Inhibition of Fe3+-mediated ROS generation in human SH-SY5Y cells expressing APPswe mutant at 1 uM after 72 hrs by DCF-DA dye-based fluorescence spectroscopic analysis; format: cell-based
Active and inactive are the calls of the source. No cut-off for these calls is given here.
Outcomes: active, inactive

- molecule: "COc1ccc(Nc2c(N/N=C/c3c(CO)cnc(C)c3O)c(=O)c2=O)cc1"
  cat: "inactive"
- molecule: "COc1ccc(Nc2c(N/N=C/c3ccc(C(C)(C)C)cc3O)c(=O)c2=O)cc1"
  cat: "inactive"
- molecule: "C[C@H](CCC(=O)Nc1ccc(C(=O)NN=C(c2ccccn2)c2ccccn2)cc1)[C@H]1CC[C@H]2[C@@H]3[C@H](O)C[C@@H]4C[C@H](O)CC[C@]4(C)[C@H]3C[C@H](O)[C@]12C"
  cat: "inactive"
- molecule: "COc1cccc(/C=N/NC(=O)c2ccc(NC(=O)CC[C@@H](C)[C@H]3CC[C@H]4[C@@H]5[C@H](O)C[C@@H]6C[C@H](O)CC[C@]6(C)[C@H]5C[C@H](O)[C@]34C)cc2)c1O (stereo in doubt)"
  cat: "inactive"
- molecule: "C[C@H](CCC(=O)Nc1ccc(C(=O)N/N=C/c2ccc(C(C)(C)C)cc2O)cc1)[C@H]1CC[C@H]2[C@@H]3[C@H](O)C[C@@H]4C[C@H](O)CC[C@]4(C)[C@H]3C[C@H](O)[C@]12C (stereo in doubt)"
  cat: "inactive"
- molecule: "CCN1/C(=C/c2c(N/N=C/c3ccc4ccccc4n3)c(=O)c2=O)Sc2ccccc21"
  cat: "inactive"
- molecule: "CCN1/C(=C/c2c(N/N=C/c3cccc(OC)c3O)c(=O)c2=O)Sc2ccccc21"
  cat: "inactive"
- molecule: "COc1ccc(Nc2c(NN=C(c3ccccn3)c3ccccn3)c(=O)c2=O)cc1"
  cat: "active"
- molecule: "C[C@H](CCC(=O)Nc1ccc(C(=O)N/N=C/c2ccc3ccccc3n2)cc1)[C@H]1CC[C@H]2[C@@H]3[C@H](O)C[C@@H]4C[C@H](O)CC[C@]4(C)[C@H]3C[C@H](O)[C@]12C (stereo in doubt)"
  cat: "inactive"
- molecule: "C[C@H](CCC(=O)N/N=C/c1ccc2ccccc2n1)[C@H]1CC[C@H]2[C@@H]3[C@H](O)C[C@@H]4C[C@H](O)CC[C@]4(C)[C@H]3C[C@H](O)[C@]12C"
  cat: "active"
- molecule: "CCN1/C(=C/c2c(N/N=C/c3c(CO)cnc(C)c3O)c(=O)c2=O)Sc2ccccc21"
  cat: "inactive"
